targetOfAssay: VR1/TRPV1 receptor (Homo sapiens)
runDescription: Inhibition of human VR1/TRPV1 following pH-stimulus
Format: cell-based
cond: compound 10 μM, read-out: IC50 (Human) following pH-stimulus: inhibition (in percent) @ 10 μM
measuredProperty: inhibition at 10 µM (%)

- compound: "CC(C(=O)NCc1ccc(C(C)(C)C)cc1)c1ccc2nc(NS(C)(=O)=O)sc2c1 (stereo not shown)"
  measurementUnits: "%"
  quantitativeReadout: 32

a: CC1CCN(c2nc(C(F)(F)F)ccc2CNC(=O)C(C)c2ccc3nc(NC(=O)OC(C)(C)C)sc3c2)CC1 (stereo not shown)
b: CC(C(=O)NCc1ccc(C(C)(C)C)cc1)c1ccc2nc(NC(=O)OC(C)(C)C)sc2c1 (stereo not shown)
c: CC1CCN(c2nc(C(C)(C)C)ccc2CNC(=O)C(C)c2ccc3nc(N)sc3c2)CC1 (stereo not shown)
Exercise: Rank the items in ascending order with respect to inhibition at 10 µM. Thanks in advance for listing the labels in the requested order.
Key: c, a, b

----------
targetOfAssay: vanilloid receptor (VR1), human VR1 gene (Homo sapiens, UniProt Q8NER1)
Sequence (Q8NER1 whole entry): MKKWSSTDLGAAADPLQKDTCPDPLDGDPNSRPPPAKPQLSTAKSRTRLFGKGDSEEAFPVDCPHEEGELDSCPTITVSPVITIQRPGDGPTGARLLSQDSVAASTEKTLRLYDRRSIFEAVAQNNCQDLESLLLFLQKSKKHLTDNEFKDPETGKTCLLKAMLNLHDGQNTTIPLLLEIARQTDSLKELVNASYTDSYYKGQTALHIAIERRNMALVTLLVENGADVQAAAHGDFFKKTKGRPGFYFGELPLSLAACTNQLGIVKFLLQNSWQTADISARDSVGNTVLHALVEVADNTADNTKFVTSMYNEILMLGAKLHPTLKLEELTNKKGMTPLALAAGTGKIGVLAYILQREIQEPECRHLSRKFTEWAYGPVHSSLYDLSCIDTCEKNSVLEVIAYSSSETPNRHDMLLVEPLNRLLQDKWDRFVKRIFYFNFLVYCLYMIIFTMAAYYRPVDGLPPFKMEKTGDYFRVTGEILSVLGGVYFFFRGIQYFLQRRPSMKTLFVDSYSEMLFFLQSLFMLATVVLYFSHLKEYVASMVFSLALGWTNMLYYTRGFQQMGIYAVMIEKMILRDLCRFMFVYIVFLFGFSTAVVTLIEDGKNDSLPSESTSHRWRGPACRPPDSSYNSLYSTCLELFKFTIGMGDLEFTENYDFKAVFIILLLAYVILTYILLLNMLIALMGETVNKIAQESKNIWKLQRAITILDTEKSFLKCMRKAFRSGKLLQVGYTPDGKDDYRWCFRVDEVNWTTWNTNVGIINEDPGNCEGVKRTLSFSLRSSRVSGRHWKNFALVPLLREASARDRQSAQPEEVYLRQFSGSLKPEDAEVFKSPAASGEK
runDescription: FLIPR Ca2+ influx assay on CHO K1 cells transfected with the VR1 gene, capsaicin stimulus (Pharmacological method II)
cond: human, Ki by Cheng-Prusoff, ne = no effect, no response observed
pKi: −log10 of the molar value.
measuredProperty: pKi

- molecule: "CC1CCN(c2nc(C(F)(F)F)ccc2CNC(=O)C(C)c2ccc3nc(N)sc3c2)CC1 (stereo not drawn) [Example 38]"
  pKi: 7.55

1: CC1CCN(c2nc(C(F)(F)F)ccc2CNC(=O)C(C)c2ccc3c(c2)OCO3)CC1 (stereo not drawn) [Example 60]
2: CCCCOc1nc(C(C)(C)C)ccc1CNC(=O)C(C)c1ccc2[nH]cnc2c1 (stereo not drawn) [Example 23]
Exercise: Of 1 and 2 , whose reported pKi is numerically smaller? Kindly state the label of the option you pick.
Key: 1

----------
targetOfAssay: VR1/TRPV1 receptor (Homo sapiens, UniProt Q8NER1)
Sequence (Q8NER1 whole entry): as above
runDescription: Inhibition of human VR1/TRPV1 following pH-stimulus
Assay type: cell-based
cond: ne = no effect, no response observed
measuredProperty: IC50 (Human) following pH-stimulus

Solved entries:
- compound: "CC1CCN(c2nc(C(F)(F)F)ccc2CNC(=O)C(C)c2ccc3nc(NS(C)(=O)=O)sc3c2)CC1 (centres unmarked)"
  IC50 (Human) following pH-stimulus: "Ne"
- compound: "CC(=O)Nc1nc2ccc(C(C)C(=O)NCc3ccc(C(F)(F)F)nc3N3CCC(C)CC3)cc2s1 (centres unmarked)"
  IC50 (Human) following pH-stimulus: "Ne"
- compound: "O=C(Cc1ccc2c(c1)OCCO2)NCc1ccc(C(F)(F)F)nc1SC1CCCCC1"
  IC50 (Human) following pH-stimulus: "ne"
- compound: "COc1cc(C(C)C(=O)NCc2ccc(C(C)(C)C)cc2)cc2ncoc12 (centres unmarked)"
  IC50 (Human) following pH-stimulus: "Ne"
- compound: "CC1CCN(c2nc(C(F)(F)F)ccc2CNC(=O)C(C)c2ccc3[nH]cnc3c2)CC1 (centres unmarked)"
  IC50 (Human) following pH-stimulus: "Ne"

Exercise: Requested field: IC50 (Human) following pH-stimulus. Item: CSc1nc2ccc(C(C)C(=O)NCc3ccc(C(C)(C)C)nc3N3CCC(C)CC3)cc2s1 (centres unmarked)
Key: Ne

Exercise: For the compound shown here, CC1CCN(c2nc(C(F)(F)F)ccc2CNC(=O)C(C)c2ccc3c(c2)OCO3)CC1 (centres unmarked) , give the reported IC50 (Human) following pH-stimulus.
Key: ne

Exercise: Consider the compound shown here: CC(C(=O)NCc1ccc(C(C)(C)C)cc1)c1ccc2ocnc2c1 (centres unmarked) What is its recorded IC50 (Human) following pH-stimulus?
Key: Ne
